Each record here notes measured half-life.
- protocol.details: Metabolic stability in human liver microsomes
- Assay type: in vitro ADME
- applied.conditions: human, liver microsomes
Express the result in min but write the number alone.

[[record]]
molecule = "C=CC(=O)Nc1cccc(-c2n[nH]c3c2CC(C)(C)CC3)c1"
observed_measurement = 16


Could you now look at the following molecule, please?
Documented half-life of COc1cc(OC)cc(C(C#N)(CCCN(C)CCc2ccc(OC)c(OC)c2)C(C)C)c1 (stereo not shown) [REF1250, reference compound] : 9

###

- protocol.details: Metabolic stability in dog liver microsomes
- Assay type: in vitro ADME
measured.attribute: % remaining @ 40 min (%)
Express the result in % but write the number alone.

For orientation, consider the following solved cases.
[[record]]
record_smiles = "C=CC(=O)Nc1cccc(-c2n[nH]c3cc(OC)ccc23)c1"
observed_measurement = 0

[[record]]
record_smiles = "C=CC(=O)Nc1cccc(-c2n[nH]c3c2COCC3)c1"
observed_measurement = 6

[[record]]
record_smiles = "C=CC(=O)Nc1cc(C(=O)O)cc(-c2n[nH]c3ccccc23)c1"
observed_measurement = 100

[[record]]
record_smiles = "C=CC(=O)Nc1cccc(-c2n[nH]c3cc(C)ccc23)c1"
observed_measurement = 0

[[record]]
record_smiles = "C=CC(=O)Nc1cccc(-c2n[nH]c3c(Cl)cccc23)c1"
observed_measurement = 0


Could you now look at the following compound, please?
Documented % remaining @ 40 min of C=CC(=O)Nc1cccc(-c2n[nH]c3c(F)cccc23)c1 : 0

###

- protocol.details: Metabolic stability in human liver microsomes
- Type: in vitro ADME
Each record here notes measured % remaining @ 40 min.
Express the result in % but write the number alone.

For orientation, consider the following solved cases.
[[record]]
record_smiles = "C=CC(=O)Nc1cc(-c2n[nH]c3ccccc23)ccn1"
observed_measurement = 0

[[record]]
record_smiles = "C=CC(=O)Nc1cccc(-c2n[nH]c3c2CCCC3)c1"
observed_measurement = 0

[[record]]
record_smiles = "C=CC(=O)Nc1cc(C(=O)O)cc(-c2n[nH]c3ccccc23)c1"
observed_measurement = 100

[[record]]
record_smiles = "C=CC(=O)Nc1cccc(-c2n[nH]c3c(F)cccc23)c1"
observed_measurement = 0

[[record]]
record_smiles = "C=CC(=O)Nc1cccc(-c2n[nH]c3cc(OC)ccc23)c1"
observed_measurement = 1


Could you now look at the following compound, please?
Documented % remaining @ 40 min of C=CC(=O)Nc1cccc(-c2n[nH]c3cc(C)ccc23)c1 : 0

###

- Test system: pJNK in HEK293 cells
- protocol.details: In-cell western (ICW) pJNK inhibition in HEK293
- Assay type: cell-based
- applied.conditions: HEK293, ICW, 2 h pre-incubation, sorbitol stimulation
Each record here notes measured pEC50.
Reminder that pEC50 is minus the log10 of a molar concentration.

For orientation, consider the following solved cases.
[[record]]
record_smiles = "C=CC(=O)Nc1cccc(-c2n[nH]c3c2CCCC3)c1"
system_under_test = "pJNK in HEK293 cells"
measured_attribute = "pEC50"
observed_measurement = 5.28

[[record]]
record_smiles = "C=CC(=O)Nc1cc(-c2n[nH]c3ccccc23)ccn1"
system_under_test = "pJNK in HEK293 cells"
measured_attribute = "pEC50"
observed_measurement = 6.05

[[record]]
record_smiles = "C=CC(=O)Nc1cc(C#N)cc(-c2n[nH]c3cc(C)ccc23)c1"
system_under_test = "pJNK in HEK293 cells"
measured_attribute = "pEC50"
observed_measurement = 5.64


Could you now look at the following compound, please?
Documented pEC50 of C=CC(=O)Nc1cccc(-c2n[nH]c3ccccc23)c1 : 5.69

###

Each record here notes measured half-life.
- protocol.details: Metabolic stability in mouse liver microsomes
- Assay type: in vitro ADME
- applied.conditions: mouse, liver microsomes

For orientation, consider the following solved cases.
[[record]]
compound = "COc1cc(OC)cc(C(C#N)(CCCN(C)CCc2ccc(OC)c(OC)c2)C(C)C)c1 (centres unmarked) [REF1250, reference compound]"
observed_measurement = "7 min"

[[record]]
compound = "C=CC(=O)Nc1cccc(-c2n[nH]c3c(F)cccc23)c1"
observed_measurement = "< 5 min"

[[record]]
compound = "C=CC(=O)Nc1cccc(-c2n[nH]c3c2CC(C)(C)CC3)c1"
observed_measurement = "11 min"

[[record]]
compound = "C=CC(=O)Nc1cccc(-c2n[nH]c3cc(Br)ccc23)c1"
observed_measurement = "< 5 min"

[[record]]
compound = "C=CC(=O)Nc1cccc(-c2n[nH]c3cc(Cl)ccc23)c1"
observed_measurement = "< 5 min"


Documented half-life of C=CC(=O)Nc1cccc(-c2n[nH]c3c2COCC3)c1 : 8 min

Documented half-life of C=CC(=O)Nc1cccc(-c2n[nH]c3cc(C)ccc23)c1 : < 5 min

Documented half-life of C=CC(=O)Nc1cccc(-c2n[nH]c3c2CCCC3)c1 : < 5 min

###

Each record here notes measured half-life.
- protocol.details: Metabolic stability in dog liver microsomes
- Assay type: in vitro ADME
- applied.conditions: dog, liver microsomes

For orientation, consider the following solved cases.
[[record]]
molecule = "C=CC(=O)Nc1cccc(-c2n[nH]c3c(F)cccc23)c1 [GO88]"
measured_attribute = "half-life"
observed_measurement = "< 5 min"

[[record]]
molecule = "C=CC(=O)Nc1cccc(-c2n[nH]c3cc(OC)ccc23)c1 [GO83]"
measured_attribute = "half-life"
observed_measurement = "< 5 min"


Documented half-life of C=CC(=O)Nc1cc(C#N)cc(-c2n[nH]c3cc(C)ccc23)c1 [GO108] : < 5 min

###

Each record here notes measured % remaining @ 40 min.
- protocol.details: Metabolic stability in dog liver microsomes
- Format: in vitro ADME
Express the result in % but write the number alone.

For orientation, consider the following solved cases.
[[record]]
record_smiles = "C=CC(=O)Nc1cc(C(=O)NC)cc(-c2n[nH]c3ccccc23)c1"
unit_annotation = "%"
observed_measurement = 71

[[record]]
record_smiles = "C=CC(=O)Nc1cc(-c2n[nH]c3ccccc23)ccc1C"
unit_annotation = "%"
observed_measurement = 0

[[record]]
record_smiles = "C=CC(=O)Nc1cc(C#N)cc(-c2n[nH]c3ccccc23)c1"
unit_annotation = "%"
observed_measurement = 0


Documented % remaining @ 40 min of C=CC(=O)Nc1cccc(-c2n[nH]c3c2CC(C)(C)CC3)c1 : 1

Documented % remaining @ 40 min of C=CC(=O)Nc1cccc(-c2n[nH]c3c2CCCC3)c1 : 0

Documented % remaining @ 40 min of C=CC(=O)Nc1cccc(-c2n[nH]c3ccccc23)c1 : 0

Documented % remaining @ 40 min of C=CC(=O)Nc1cccc(-c2n[nH]c3cc(Br)ccc23)c1 : 0

Documented % remaining @ 40 min of C=CC(=O)Nc1cc(C#N)cc(-c2n[nH]c3cc(C)ccc23)c1 : 0

Documented % remaining @ 40 min of C=CC(=O)Nc1cc(-c2n[nH]c3ccccc23)ccn1 : 5

Documented % remaining @ 40 min of C=CC(=O)Nc1cccc(-c2n[nH]c3cc(Cl)ccc23)c1 : 0

###

- protocol.details: Metabolic stability in monkey liver microsomes
- Assay type: in vitro ADME
measured.attribute: half-life

Documented half-life of COc1cc(OC)cc(C(C#N)(CCCN(C)CCc2ccc(OC)c(OC)c2)C(C)C)c1 (stereo not drawn) [REF1250, reference compound] : < 5 min

Documented half-life of C=CC(=O)Nc1cccc(-c2n[nH]c3cc(Br)ccc23)c1 : < 5 min

Documented half-life of C=CC(=O)Nc1cccc(-c2n[nH]c3c(F)cccc23)c1 : < 5 min

###

Each record here notes measured EC50.
- Tested on: pATF2 in HEK293 cells
- protocol.details: pATF2 inhibition in HEK293 cells
- Format: cell-based
- applied.conditions: Homo sapiens
Express the result in µM but write the number alone.

[[record]]
record_smiles = "C=CC(=O)Nc1cccc(-c2n[nH]c3cc([N+](=O)[O-])ccc23)c1"
system_under_test = "pATF2 in HEK293 cells"
observed_measurement = 3.71

[[record]]
record_smiles = "C=CC(=O)Nc1cccc(-c2n[nH]c3ccccc23)c1"
system_under_test = "pATF2 in HEK293 cells"
observed_measurement = 2.79


Could you now look at the following compound, please?
Documented EC50 of C=CC(=O)Nc1cccc(-c2n[nH]c3cc(C)ccc23)c1 : 5.19

###

- protocol.details: Metabolic stability in mouse liver microsomes
- Format: in vitro ADME
measured.attribute: % remaining @ 40 min (%)
Express the result in % but write the number alone.

For orientation, consider the following solved cases.
[[record]]
record_smiles = "C=CC(=O)Nc1cccc(-c2n[nH]c3c2COCC3)c1"
measured_attribute = "% remaining @ 40 min"
observed_measurement = 4

[[record]]
record_smiles = "C=CC(=O)Nc1cccc(-c2n[nH]c3c2CC(C)(C)CC3)c1"
measured_attribute = "% remaining @ 40 min"
observed_measurement = 18


Documented % remaining @ 40 min of C=CC(=O)Nc1cccc(-c2n[nH]c3cc(C)ccc23)c1 : 0

Documented % remaining @ 40 min of C=CC(=O)Nc1cccc(-c2n[nH]c3cc(OC)ccc23)c1 : 0

Documented % remaining @ 40 min of C=CC(=O)Nc1cccc(-c2n[nH]c3ccccc23)c1 : 0

Documented % remaining @ 40 min of C=CC(=O)Nc1cccc(-c2n[nH]c3cc(Cl)ccc23)c1 : 0
